Target sequence: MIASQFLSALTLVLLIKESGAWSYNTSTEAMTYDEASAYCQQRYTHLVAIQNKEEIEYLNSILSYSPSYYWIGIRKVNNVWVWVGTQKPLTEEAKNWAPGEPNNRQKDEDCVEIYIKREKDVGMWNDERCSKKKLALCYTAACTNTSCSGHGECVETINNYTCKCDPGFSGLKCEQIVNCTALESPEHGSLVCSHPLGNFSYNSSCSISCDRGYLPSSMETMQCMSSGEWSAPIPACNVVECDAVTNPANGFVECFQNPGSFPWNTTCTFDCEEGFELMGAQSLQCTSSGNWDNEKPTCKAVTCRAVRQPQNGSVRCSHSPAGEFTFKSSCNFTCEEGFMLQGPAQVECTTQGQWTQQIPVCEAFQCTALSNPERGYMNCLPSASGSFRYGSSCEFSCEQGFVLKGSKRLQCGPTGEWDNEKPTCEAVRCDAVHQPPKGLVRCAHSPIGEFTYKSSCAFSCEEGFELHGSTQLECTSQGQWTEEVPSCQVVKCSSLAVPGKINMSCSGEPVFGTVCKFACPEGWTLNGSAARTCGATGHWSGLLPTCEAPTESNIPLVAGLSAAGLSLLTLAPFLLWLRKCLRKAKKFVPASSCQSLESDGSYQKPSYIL
Entries and their IC50 values follow.
Expressed in µM, but write only the number.

As a guide, the following entries are already answered.
Field IC50 (entry CCCCCCCCCCCCCCC(CCCCCCCCCCCCCC)C(=O)N[C@H](CO[C@@H]1O[C@H](C(C)O)[C@@H](O)[C@@H]1O)C(=O)N[C@@H](CCC(=O)O)C(=O)NC.N=C(N)NCCC[C@H](N)C=O (some centres undefined) ) reads 4.3

Field IC50 (entry CCCCCCCCCCCCCCC(CCCCCCCCCCCCCC)C(=O)NC(COC1O[C@@H](O)[C@@H](O)[C@H](O)[C@@H]1O)C(=O)N[C@H](CCC(=O)O)C(=O)NC (single isomer, unassigned) ) reads 13

Field IC50 (entry CCCCCCCCCCCCCCC(CCCCCCCCCCCCCC)C(=O)NC(CO[C@@H]1O[C@@H](O)[C@@H](O)[C@H](O)[C@@H]1O)C(=O)N[C@@H](CCC(=O)O)C(=O)NC (single isomer, unassigned) ) reads 1.5

Please find the next compound below.
Field IC50 (entry CCCCCCCCCCCCCCC(CCCCCCCCCCCCCC)C(=O)N[C@@H](CO[C@@H]1O[C@H](C(C)O)[C@@H](O)[C@@H]1O)C(=O)N[C@H](CCC(=O)O)C(=O)NC (some centres undefined) ) reads 3.1

These measurements were taken from ChEMBL document CHEMBL1131260.
